Data credit: PubChem BioAssay (NCI)

- Tested on: PC-3 prostate
- ASSAY_PROTOCOL: NCI-60 one-dose screen, 48 h
- CONDITION_PARAMETERS: 10 µM unless noted
About 83,000 compounds went through this panel and 20% of them were active in at least one assay; those are over-represented in the sample as a whole. Activity calls are given as the source filed them. How the source made its calls: active means growth percent below 10; inactive means the rest.
Classes used: active, inactive

COMPOUND: c1ccc(Nc2nc3c(s2)CCc2c[nH]cc2-3)nc1
ASSIGNED_CATEGORY: inactive
//
COMPOUND: O=C(NC1CCC(Br)CC1)C1CCCC(S(=O)(=O)NC2CCCCC2)C1 (stereo not given)
ASSIGNED_CATEGORY: active
//
COMPOUND: CSc1nc2ccc(C)cc2cc1/C=C1/C=C(c2ccccc2)NC1=O
ASSIGNED_CATEGORY: inactive
//
COMPOUND: O=C(Nc1cccnc1Nc1ccc(Cl)cc1)c1cn(Cc2cccc(Oc3ccccc3)c2)nn1
ASSIGNED_CATEGORY: inactive
//
COMPOUND: COc1ccc2c(c1)oc1c(C)c3c(c(C)c12)C(=O)N(CCOS(C)(=O)=O)C3=O
ASSIGNED_CATEGORY: inactive
//
COMPOUND: CCN(CC)C(=O)CC1=C(C)/C(=C/c2[nH]c(-c3ccc[nH]3)cc2OC)N=C1C
ASSIGNED_CATEGORY: active
//
COMPOUND: COc1ccc(CN2C(=O)OC(C)(COC(C)=O)C2=O)cc1 (stereo not given)
ASSIGNED_CATEGORY: inactive
//
COMPOUND: CN(C)Cc1cc(C(C)(C)C)cc(Br)c1O
ASSIGNED_CATEGORY: inactive
//
COMPOUND: COc1cc(-c2ccc[nH]2)[nH]c1/C=C1\N=C(C)C(CC(=O)OCC(C)(C)C)=C1C
ASSIGNED_CATEGORY: active
//
COMPOUND: O=C(NCCCCCCNC(=O)OCc1ccc2c(Cl)cc(Cl)c(O)c2n1)OCc1ccc2c(Cl)cc(Cl)c(O)c2n1
ASSIGNED_CATEGORY: active

====

- Tested on: CAKI-1 renal
- ASSAY_PROTOCOL: NCI-60 one-dose screen, 48 h (100 = growth as untreated, 0 = no growth, -100 = all killed)
- CONDITION_PARAMETERS: 10 µM unless noted
This is part of a sample that, as a whole, favours compounds with a hit. Of some 83,000 tested, about 20% had one in any assay. The source made the active and inactive calls. The calls were made as follows: active = growth percent below 10; inactive = the rest.

COMPOUND: CCOC(=O)NCCCC(=O)NCCc1ccccc1
growth: 99.5% (inactive)

COMPOUND: O=CN1N=C(c2cccc(Nc3ccnc4cc(Cl)ccc34)c2)CC1c1ccc(Cl)cc1 (centres undefined)
growth: 18.8% (inactive)

COMPOUND: Cc1cccc(N=Nc2cccc(C)c2)c1
growth: 96.2% (inactive)

COMPOUND: O=C(Cn1nc(-c2cccc3ccccc23)ccc1=O)NCc1cccc(Cl)c1
growth: 40.2% [50 µM] (inactive)

COMPOUND: COc1cc2ncnc(Nc3ccc(F)c(Cl)c3)c2cc1OCC(=O)N1CCOCC1
growth: 48.4% (inactive)

COMPOUND: CCN(CC)CCOc1ccc(/C(=C(\C)Cc2ccc(OC)cc2)c2ccc(OC(=O)NCc3ccccc3)cc2)cc1
growth: 69.3% (inactive)

COMPOUND: CC/C(=C(\c1ccc(Cl)cc1)c1ccc(OCCN2CCCCC2)cc1)c1ccc(O)cc1
growth: 62.3% (inactive)

COMPOUND: CCOC(=O)c1nnn(Cc2cc(=O)oc3ccc(O)cc23)c1C
growth: 96.7% (inactive)

COMPOUND: COC12C=C/C(=C(/C(=O)OCc3csc(SC)n3)C(=O)CCCCCCCCC3(OC)C=C/C(=C(/C(=O)OCc4cnc(SC)s4)C(=O)CCCCCCCC1)O3)O2 (centres undefined)
growth: 68% (inactive)

COMPOUND: CCn1cc(Cc2cc(C(=O)Nc3cc4cc(OC)c(OC)cc4c(C)n3)ccc2Cl)cn1
growth: 47.8% (inactive)

COMPOUND: CCC(C)(C)c1ccc(Nc2ccc(Nc3ccc(C(C)(C)CC)cc3)cc2)cc1
growth: 71% (inactive)

COMPOUND: CC(O)Cc1c[nH]c(=O)[nH]c1=O (centres undefined)
growth: 99.6% (inactive)

COMPOUND: CC(C)=CC(=O)N[C@H]1CC[C@]2(C)C3CC[C@]4(C)C(C(C)N(C)C)=CCC4C3CCC2[C@H]1O (some centres undefined)
growth: 79.4% (inactive)

COMPOUND: CSc1nc(-c2ccco2)c(C#N)c(=O)n1C
growth: 89.2% (inactive)

COMPOUND: CC1(C)CC[C@]23CC[C@]4(C)[C@H](CC[C@@H]5[C@@]6(C)CCNCC(C)(C)[C@@H]6CC[C@]54C)[C@H]2[C@H]1OC3
growth: 93.9% (inactive)

COMPOUND: CC1(C)CC(=O)C2=C(C1)C(c1ccc(Cl)cc1)n1ncc(C#N)c1N2 (centres undefined)
growth: 90.3% (inactive)

COMPOUND: CCN(CC)CCCC(Cc1ccccc1)Nc1c2ccc(Cl)cc2nc2ccc(OC)cc12 (centres undefined)
growth: 32.6% (inactive)

COMPOUND: CCN(CC)CCCNc1cc(OC)c(OC)c2cccnc12
growth: 52.5% (inactive)

COMPOUND: CCN(CC)CCn1c2ccc(OC)cc2c2sc3cc(O)ccc3c(=O)c21
growth: 58.1% (inactive)

====

- Test system: HCT-116 colon
- ASSAY_PROTOCOL: NCI-60 one-dose screen, 48 h (100 = growth as untreated, 0 = no growth, -100 = all killed)
- CONDITION_PARAMETERS: 10 µM unless noted
Compounds without any hit were thinned out: in the full panel of roughly 83,000, 20% have a hit.
List of growth values.
RECORDED_METRIC: growth (%)

COMPOUND: N#CC1=C(N)Oc2c(sc3c(F)cccc23)C1c1ccc([N+](=O)[O-])cc1 (stereo unspecified)
TARGET_OR_SYSTEM: HCT-116 colon
RECORDED_METRIC: growth
QUANTITY_UNIT: %
OBSERVED_RESULT: -84.8
//
COMPOUND: O=C1Nc2ccc(Cl)cc2/C1=C/c1ccc[nH]1
TARGET_OR_SYSTEM: HCT-116 colon
RECORDED_METRIC: growth
QUANTITY_UNIT: %
OBSERVED_RESULT: 87.1
//
COMPOUND: CC1(C)CC[C@]2(CO)CC[C@]3(C)[C@](O)([C@H](O)C[C@@H]4[C@@]5(C)CCCNC(C)(C)[C@@H]5CC[C@]43C)[C@@H]2C1
TARGET_OR_SYSTEM: HCT-116 colon
RECORDED_METRIC: growth
QUANTITY_UNIT: %
OBSERVED_RESULT: 71.3
//
COMPOUND: COc1ccc(-c2cc(-c3cc(OC)ccc3OC)nc(SCC(C)=O)c2C#N)cc1
TARGET_OR_SYSTEM: HCT-116 colon
RECORDED_METRIC: growth
QUANTITY_UNIT: %
OBSERVED_RESULT: 74
//
COMPOUND: CCn1cc(Cc2cc(C(=O)Nc3cc4cc(OC)c(OC)cc4c(C)n3)ccc2Cl)cn1
TARGET_OR_SYSTEM: HCT-116 colon
RECORDED_METRIC: growth
QUANTITY_UNIT: %
OBSERVED_RESULT: 10.3
//
COMPOUND: C[C@H]1[C@H](C)CC[C@]2(C(=O)NCCNCCN)CC[C@]3(C)C(=CC[C@@H]4[C@@]5(C)CCC(=O)C(C)(C)[C@@H]5CC[C@]43C)[C@H]12
TARGET_OR_SYSTEM: HCT-116 colon
RECORDED_METRIC: growth
QUANTITY_UNIT: %
OBSERVED_RESULT: -51.8

====

- System: KM12 colon
- ASSAY_PROTOCOL: NCI-60 one-dose screen, 48 h (100 = growth as untreated, 0 = no growth, -100 = all killed)
- CONDITION_PARAMETERS: 10 µM unless noted
This is part of a sample that, as a whole, favours compounds with a hit. Of some 83,000 tested, about 20% had one in any assay. Active and inactive are the calls of the source. Rule for the calls: active = growth percent below 10; inactive = the rest.
RECORDED_METRIC: growth

MOLECULE: O=C(c1cccc(N2CCOCC2)n1)c1c[nH]c2ccccc12
OBSERVED_RESULT: 90.5% (inactive)
--
MOLECULE: C=C1C(=O)O[C@H]2[C@H]1CC/C(COC(=O)/C=C\C(=O)NCc1ccc(Cn3c(=O)sn(CCCCl)c3=O)cc1)=C\CC[C@@]1(C)O[C@@H]21
OBSERVED_RESULT: 99.4% (inactive)
--
MOLECULE: C/C(=C(\c1ccc(OCCN2CCCCCC2)cc1)c1ccc(OC(=O)c2ccccc2)cc1)c1ccc(Cl)cc1
OBSERVED_RESULT: 32.1% (inactive)
--
MOLECULE: O=[N+]([O-])c1ccccc1Nc1ccc2ccccc2c1
OBSERVED_RESULT: 99.4% (inactive)
--
MOLECULE: Cc1ccc2cnc(N)c(C#Cc3cc(C(=O)Nc4ccc(CN5CCN(C)CC5)c(C(F)(F)F)c4)cnc3C)c2c1
OBSERVED_RESULT: 0.561% (active)
--
MOLECULE: O=C1/C(=C/c2ccc(Cl)cc2)CN(C(=O)C(Cl)Cl)C/C1=C\c1ccc(Cl)cc1
OBSERVED_RESULT: -81.9% (active)
--
MOLECULE: COC12C=C/C(=C(/C(=O)OCCSc3ccnn3C)C(=O)CCCCCCCCC3(OC)C=C/C(=C(/C(=O)OCCSc4ccnn4C)C(=O)CCCCCCCC1)O3)O2
OBSERVED_RESULT: -57.6% (active)
--
MOLECULE: OC1(c2ccccc2)c2ccccc2N(c2ccccc2)c2ccc(Cl)cc21 (centres undefined)
OBSERVED_RESULT: -87.6% (active)
--
MOLECULE: c1ccc(-c2nc3ccccc3[nH]2)c(OCCCCCOc2ccccc2-c2nc3ccccc3[nH]2)c1
OBSERVED_RESULT: 98.6% (inactive)
--
MOLECULE: COc1ccc(-c2nc3c(c(-c4ccc(Cl)cc4)nn3-c3ccccc3)c(-c3ccccc3)c2C#N)cc1
OBSERVED_RESULT: 98.5% (inactive)
--
MOLECULE: CS(=O)(=O)Nc1cc(-c2ccc3ncnc(Nc4ccc5c(cnn5Cc5ccccc5F)c4)c3c2)cnc1Cl
OBSERVED_RESULT: 71.5% (inactive)
--
MOLECULE: COC(=O)c1ccc2cc(OC)c(OC)cc2c1
OBSERVED_RESULT: 108% (inactive)
--
MOLECULE: CN(C)c1ccc([C@@H](C(=O)Nc2cccc([N+](=O)[O-])c2)N(C(=O)c2cc3ccccc3[nH]2)c2cccc([N+](=O)[O-])c2)cc1
OBSERVED_RESULT: 103% (inactive)
--
MOLECULE: O=[N+]([O-])c1ccccc1Sc1ccccc1[N+](=O)[O-]
OBSERVED_RESULT: 92.6% (inactive)
